System: UACC-62
Test: NCI human cancer cell line screen (COMPARE screening), Melanoma UACC-62
Type: cell-based
Settings: UACC-62; concentration causing 50% growth inhibition; read-out: Cytotoxicity (G150 in μM) Melanoma UACC-62
Source text: Considering the diversity of cancer in terms of cell type, morphology, growth rate and other cellular characteristics, the U.S. National Cancer Institute (NCI) has developed a “disease-oriented” approach to anticancer activity screening (M. R. Boyd, in “Principle of Practice of Oncology” […]. Rosenberg (Eds.) Vol. 3, PPO Update, No. 10, 1989). […]
Measured Parameter: IC50 (µM)
Write the answer as a number in µM, unit excluded.

Input line: Requested field: IC50. Item: COc1cc2c3c(n(C)c(=O)c2cc1OC)-c1cc2c(cc1C3=O)OCO2 [Compound 1, reference compound]
Output line: 4.2

----------
Below is a list of entries, each paired with its recorded log10 IC50 value.
Test system: HOP-62
Test: NCI human cancer cell line screen (COMPARE screening), Lung HOP-62
Assay type: cell-based
Settings: Homo sapiens; HOP-62; concentration causing 50% growth inhibition; read-out: Cytotoxicity (G150 in μM) Lung HOP-62
From the text: Considering the diversity of cancer in terms of cell type, morphology, growth rate and other cellular characteristics, the U.S. National Cancer Institute (NCI) has developed a “disease-oriented” approach to anticancer activity screening (M. R. Boyd, in “Principle of Practice of Oncology” […]. Rosenberg (Eds.) Vol. 3, PPO Update, No. 10, 1989). […]
A difference of one corresponds to tenfold IC50; all values are log10 with IC50 in µM.

Below are worked cases with known answers.
| Compound | Experimental System | log10 IC50 |
| --- | --- | --- |
| CC[n+]1cc2cc(OC)c(OC)cc2c2c1-c1cc3c(cc1C2)OCO3 | HOP-62 | 1.34 |
| O=C1c2ccccc2-c2c1c1ccccc1c(=O)n2CCCCO | HOP-62 | 1.11 |
| COc1cc2c3c(n(Cc4ccccc4)c(=O)c2cc1OC)-c1cc2c(cc1C3=O)OCO2 [Compound 13e] | HOP-62 | 1.08 |
| CCCCn1c2c(c3cc(OC)c(OC)cc3c1=O)C(=O)c1cc3c(cc1-2)OCO3 [Compound 13d] | HOP-62 | 1.20 |

Input line: Can you look up the measured log10 IC50 of COc1cc2c(c(OC)c1OC)C(=O)c1c-2n(C)c(=O)c2ccccc12 [Compound 13j] for me?
Output line: 1.38

Input line: Request the reported log10 IC50 associated with CCCCn1c2c(c3ccccc3c1=O)C(=O)c1cc3c(cc1-2)OCO3 [Compound 13b]
Output line: 1.23

Input line: For the compound shown here, COc1cc2c3c(n(C)c(=O)c2cc1OC)-c1cc(OCc2ccccc2)c(OCc2ccccc2)cc1C3=O [Compound 13h] , give the reported log10 IC50.
Output line: 1.66

Input line: // log10 IC50 lookup, key: CCn1c2c(c3cc(OC)c(OC)cc3c1=O)C(=O)c1cc3c(cc1-2)OCO3 [Compound 13k]
Output line: 0.34

----------
Tested on: DU-145
Experiment: NCI human cancer cell line screen (COMPARE screening), Prostate DU-145
Format: cell-based
Details: DU-145; concentration causing 50% growth inhibition; read-out: Cytotoxicity (G150 in μM) Prostate DU-145
Measured Parameter: IC50 (µM)
Reply with just the number (in µM).

Input line: Any idea what IC50 was measured for COc1cc2c3c(n(C)c(=O)c2cc1OC)-c1cc2c(cc1C3=O)OCO2 [Compound 1, reference compound] ?
Output line: 37
